Test system: A2780 (human ovarian carcinoma, ECACC 93112519)
Test: Cytotoxicity A2780 (2nd method), sulforhodamine B
Format: cell-based
Conditions: 24 h exposure, then 96 h in fresh medium, SRB
pIC50: −log10 of the molar value.

[
  {
    "MOLECULE": "F[P-](F)(F)(F)(F)F.NCCN.[Cl][Ru+].c1ccc(-c2ccccc2)cc1 [Compound C1, [(η^6-C6H5C6H5)Ru(en)Cl][PF6], reference compound]",
    "pIC50": 5.19
  }
]
